Reference source: patent US7615361B2

Assay: Solubility in culture medium (nephelometry)
Format: physicochemical
Conditions: 37 °C, plasma or biological fluid, kinetic from dmso stock, dosing medium, 37° C.; NHEM 24 HR; read-out: Highest Soluble Concentration
REPORTED_ENDPOINT: solubility (µM)

>>> print(df.to_string())
                           structure_string  reported_endpoint  result_number
0  C=C(C)[C@H]1Cc2c(ccc3c2O[C@@H]2COc4cc(OC)c(OC)cc4[C@@H]2C3=O)O1         solubility            100

----------
We begin with a simple list: items and their reported CC50 at 24 h.
Assay: MTT reduction
Assay type: cell-based, rat
Details: neonatal rat cardiomyocytes; rat cardiomyocytes (CM), 24 HR exposure; read-out: MTT TC50
REPORTED_ENDPOINT: CC50 at 24 h

                           structure_string    result
0  CC[C@@]1(O)C(=O)OCc2c1cc1n(c2=O)Cc2cc3ccccc3nc2-1  > 300 µM
1  COc1cccc2c1C(=O)c1c(O)c3c(c(O)c1C2=O)C[C@@](O)(C(=O)CO)C[C@@H]3O[C@H]1C[C@H](N)[C@H](O[C@@H]2CCCCO2)[C@H](C)O1      7 µM
